Please go through the items and note down their IC50.
Biological target: active p38 alpha enzyme (Upstate Biotechnology) (Homo sapiens)
Construct: purchased Upstate Biotechnology
Sequence (Q16539 whole entry): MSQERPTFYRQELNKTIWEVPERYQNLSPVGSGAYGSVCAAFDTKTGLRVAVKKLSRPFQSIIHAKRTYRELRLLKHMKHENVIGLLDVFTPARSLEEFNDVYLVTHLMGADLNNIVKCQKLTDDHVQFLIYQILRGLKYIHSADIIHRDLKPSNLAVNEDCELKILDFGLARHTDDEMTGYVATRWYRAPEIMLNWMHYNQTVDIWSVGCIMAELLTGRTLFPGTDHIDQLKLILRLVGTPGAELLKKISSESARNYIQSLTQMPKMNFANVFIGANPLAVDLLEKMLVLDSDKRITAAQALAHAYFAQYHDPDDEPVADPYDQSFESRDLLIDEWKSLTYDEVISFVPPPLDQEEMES
Assay: p38α biochemical assay (ATP turnover, luminescent detection, Cambrex PKlight)
Details: p38α kinase; Table 1 Biological Activity

I would be grateful if you could provide IC50 for each of the following entries.
1. CC(C)NC(=O)c1csc(-c2c(-c3ccc(F)cc3)noc2CN(CCCO)Cc2ccccn2)n1
2. COC[C@@H]1CCCN1Cc1onc(-c2ccc(F)cc2)c1-c1nc(C(=O)NC(C)C)cs1

Out:
1: > 1 µM; 2: > 1 µM

I would be grateful if you could provide IC50 for each of the following entries.
1. Cc1nc(-c2ccc(F)cc2)c(-c2nc(C(=O)NCc3ccc4c(c3)OCO4)cs2)s1
2. Cc1nc(-c2ccc(F)cc2)c(-c2nc(C(=O)N(C)CC(O)c3ccc(O)cc3)cs2)s1 (stereo not shown)
3. CC(C)NC(=O)c1csc(-c2c(-c3ccc(F)cc3)n[nH]c2C2CCN(C(=O)c3cc(O)c(O)c(O)c3)CC2)n1
4. CC(C)NC(=O)c1csc(-c2c(-c3ccc(F)cc3)n[nH]c2C2CCNCC2)n1

Out:
1. ≤ 1 µM
2. > 1 µM
3. ≤ 1 µM
4. ≤ 1 µM

In: Fill in the blank: the reported IC50 of CCN(Cc1nc(-c2ccc(F)cc2)c(-c2nc(C(=O)NC(C)C)cs2)o1)C(Cc1ccccc1)c1ccco1 (stereo not shown) is ____.
Out: > 1 µM
